# tgt: Jun bZIP K258A;Fos bZIP R144A (human;human, UniProt P05412;P01100 252-315;137-200, K258A|R144A)
# Sequence (P05412 252-315 K258A, chain 1 of 2): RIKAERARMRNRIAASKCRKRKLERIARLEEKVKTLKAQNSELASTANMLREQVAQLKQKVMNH
# Sequence (P01100 137-200 R144A, chain 2 of 2): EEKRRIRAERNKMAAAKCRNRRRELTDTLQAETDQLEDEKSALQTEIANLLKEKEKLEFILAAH
# experiment notes: ITC
pKd: −log10 of the molar value.
outcome measure: pKd

binder	reported result
TRE duplex 15-mer (dsDNA) DNA 1: CGCGTGACTCACCCC DNA 2: GGGGTGAGTCACGCG	5.56
